Give HHEPs CLint, app for every item shown.
ASSAY_NOTES: In vitro intrinsic clearance in human hepatocytes
Type: in vitro ADME
STATED_CONDITIONS: 1 μM substrate, human hepatocytes 0.5 million viable cells per mL, 37° C.
Numbers only, in μL/min/million.

CN([C@H]1COC2(CCN(C(=O)O[C@H](CO)C(F)(F)F)CC2)C1)S(=O)(=O)c1ccccc1 [Comparative-Compound 3]; 10.6

Okay, next one:
Any idea what HHEPs CLint, app was measured for O=C(OC(C(F)(F)F)C(F)(F)F)N1CCC2(CC1)C[C@@H](NS(=O)(=O)C1CC1)CO2 [Example 2] ? 3.46

====

ASSAY_NOTES: In vitro intrinsic clearance in human hepatocytes
Type: in vitro ADME
STATED_CONDITIONS: 1 μM substrate, human hepatocytes 0.5 million viable cells per mL, 37° C.
PARAMETER_MEASURED: HHEPs CLint, app

Known HHEPs CLint, app results, listed for orientation:
O=C(OC(C(F)(F)F)C(F)(F)F)N1CCC2(CC1)C[C@@H](NS(=O)(=O)c1ccccc1)CO2 [Comparative-Compound 4]; 27.5 μL/min/million
CN([C@H]1COC2(CCN(C(=O)O[C@H](CO)C(F)(F)F)CC2)C1)S(=O)(=O)CC1CC1 [Comparative-Compound 1]; 5.5 μL/min/million

Entry O=C(OC(C(F)(F)F)C(F)(F)F)N1CCC2(CC1)C[C@@H](NS(=O)(=O)CC1CC1)CO2 [Example 1] : reported HHEPs CLint, app = ? <4.26 μL/min/million
